These entries and their values trace back to patent US20110028447A1.

- MEASURED_TARGET: human CB1 receptor (Homo sapiens)
- EXPERIMENT_DESCRIPTION: [35S] GTPγS binding on membranes of CHO cells expressing the human CB1 receptor (agonism)
- Assay type: biochemical
- Set-up: expressed in transfected cells; membrane preparation
- CONDITION: human CB1, CHO cell membranes, read-out: GTPγS EC50
I'd appreciate it if you marked entries criterion met when EC50 is lower than 4 nM and criterion not met when it is not.

• CC(C)(C)[C@H](NC(=O)c1nn(Cc2ccc(F)cc2)c2c(Cl)cccc12)C(=O)NCCNS(=O)(=O)C1CC1 = criterion met
• CC(C)NS(=O)(=O)CCNC(=O)[C@@H](NC(=O)c1nn(Cc2ccc(F)cc2)c2ccccc12)C(C)(C)C = criterion not met
• CC(C)(C)[C@H](NC(=O)c1nn(Cc2ccc(F)cc2)c2ccccc12)C(=O)NCCNS(=O)(=O)c1ccc(C#N)cc1 = criterion not met
• CC(C)(C)[C@H](NC(=O)c1nn(Cc2ccc(F)cc2)c2ccccc12)C(=O)NC[C@H]1CCCC[C@H]1O = criterion not met
• CC(C)(O)C1CCN(C(=O)[C@@H](NC(=O)c2nn(Cc3ccc(F)cc3)c3ccccc23)C(C)(C)C)CC1 = criterion not met
• CC(C)(C)[C@H](NC(=O)c1nn(Cc2ccc(F)cc2)c2ccccc12)C(=O)N1CCN(C(N)=O)CC1 = criterion met
• CC(C)(C)[C@H](NC(=O)c1nn(Cc2ccc(F)cc2)c2ccccc12)C(=O)NCCNC(=O)C1CC1 = criterion not met

====

- MEASURED_TARGET: human CB1 receptor (Homo sapiens, UniProt P21554)
- Sequence (P21554 whole entry): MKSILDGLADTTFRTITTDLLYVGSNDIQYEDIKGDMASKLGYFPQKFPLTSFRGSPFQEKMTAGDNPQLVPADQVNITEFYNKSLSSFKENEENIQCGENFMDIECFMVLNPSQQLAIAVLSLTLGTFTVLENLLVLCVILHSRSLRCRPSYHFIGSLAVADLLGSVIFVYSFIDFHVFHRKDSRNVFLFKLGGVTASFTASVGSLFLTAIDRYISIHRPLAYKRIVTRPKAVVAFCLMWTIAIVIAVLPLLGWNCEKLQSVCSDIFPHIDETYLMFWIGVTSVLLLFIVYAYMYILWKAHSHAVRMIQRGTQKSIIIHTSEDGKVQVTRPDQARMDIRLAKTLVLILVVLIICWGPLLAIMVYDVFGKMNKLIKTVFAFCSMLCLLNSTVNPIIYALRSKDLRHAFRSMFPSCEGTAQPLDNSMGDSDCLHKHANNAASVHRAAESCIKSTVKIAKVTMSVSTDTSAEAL
- EXPERIMENT_DESCRIPTION: [35S] GTPγS binding on membranes of CHO cells expressing the human CB1 receptor (agonism)
- Assay type: biochemical
- Set-up: expressed in transfected cells; membrane preparation
- CONDITION: human CB1, CHO cell membranes, read-out: GTPγS EC50
- Experimental: Membrane preparation: CHO cells expressing the human CB1 receptor were grown to 80% confluence in Ham's F-12 Nutrient Medium (Invitrogen) containing 10% fetal bovine serum (Invitrogen), 1% pen/strep (Invitogen), 1% Nonessential amino acids (Invitrogen) and 500 μg/ml G418 (Invitrogen). Cells were released from flasks using Cell Dissociation Buffer (Invitrogen). […] Protein concentration was determined using the Micro-BCA Protein Assay Kit (Pierce) using BSA as a standard. […]
pEC50: −log10 of the molar value.
RECORDED_METRIC: pEC50

• CC(C)(C)[C@H](NC(=O)c1nn(Cc2ccc(F)cc2)c2ccccc12)C(=O)N1CCC(F)(CO)CC1 [Example 337] = 7.68
• CCOC(=O)c1nc(CNC(=O)C(NC(=O)c2nn(Cc3ccc(C#N)cc3)c3ccccc23)C(C)(C)C)no1 (centres unmarked) [Example 136] = 6.94
• CC(C)(C)[C@H](NC(=O)c1nn(Cc2ccc(F)cc2)c2ccccc12)C(=O)NC[C@H]1CCCC[C@@H]1O [Example 253] = 7.59
• CC(C)(C)[C@H](NC(=O)c1nn(Cc2ccc(F)cc2)c2ccccc12)C(=O)NCc1nc(-c2ccccn2)no1 [Example 424] = 7.99
• CC(C)(C)[C@H](NC(=O)c1nn(Cc2ccc(F)cc2)c2ccccc12)C(=O)NCCn1ccccc1=O [Example 502] = 7.43
• CC(C)(C)[C@H](NC(=O)c1nn(Cc2ccc(F)cc2)c2ccccc12)C(=O)NCc1n[nH]c(C2CC2)n1 [Example 413] = 7.28
• Cc1nc(CNC(=O)[C@@H](NC(=O)c2nn(Cc3ccc(F)cc3)c3ccccc23)C(C)(C)C)nn1C [Example 421] = 7.76
• CC(C)(C)C(NC(=O)c1nn(Cc2ccc(C#N)cc2)c2ccccc12)C(=O)NCc1nnc(C(N)=O)o1 (centres unmarked) [Example 130] = 7.14
• CC(C)(C)[C@H](NC(=O)c1nn(Cc2ccc(C#N)cc2)c2ccccc12)c1nnc(N)o1 [Example 71] = 6.50
• CC(C)(C)[C@H](NC(=O)c1nn(Cc2ccc(F)cc2)c2ccccc12)C(=O)NCCNS(=O)(=O)C1CC1 [Example 99] = 9.30
• CCOC(=O)c1nnc(CNC(=O)[C@@H](NC(=O)c2nn(Cc3ccc(C#N)cc3)c3ccccc23)C(C)(C)C)o1 [Example 129] = 6.97
• CC(C)(C)[C@H](NC(=O)c1nn(Cc2ccc(F)cc2)c2ccccc12)C(=O)NCCN1Cc2ncccc2C1=O [Example 500] = 7.32
• CCOC(=O)[C@H]1C[C@@H](NC(=O)[C@@H](NC(=O)c2nn(Cc3ccc(F)cc3)c3ccccc23)C(C)(C)C)C1 [Example 381] = 7.57
• CC(C)(C)[C@H](NC(=O)c1nn(Cc2ccc(F)cc2)c2ccccc12)C(=O)N1CCN(CC(O)CO)CC1 (some centres unmarked) [Example 233] = 7.94
